Values compiled from paper PMC10222270.

- measured-on: SARS CoV-2 M^pro (Severe acute respiratory syndrome coronavirus 2, UniProt P0DTD1)
- Construct: The main protease (M^pro) is a part of the polyprotein chain, also named 3C-like protease; SUMO (cleaved yes); His; made in house; host or cells: Escherichia coli BL21(DE3)
- test-summary: nanoDSF thermal shift assay (TSA)
- Assay type: binding
- condition-context: x-intercept of linear regression of ΔTm on log10 of compound concentration; read-out: Kobs
Where a name gives a salt, the structure may show the parent alone.
Let's look at some compounds and their measured Kd.

| compound | Kd (µM) |
| --- | --- |
| COc1cc(O)c2c(c1)oc(=O)c1c3cc(O)c(O)cc3oc21 | 0.977 |
| Cc1c(=O)c(=O)c2c3c[nH]c4c(C)c(=O)c(=O)c(c5c[nH]c1c52)c43 | 11.6 |
| CC(C)CCCC(C)C1CCC2C3CC=C4CC(OS(=O)(=O)O)CCC4(C)C3CCC12C (stereo not shown) [cholesteryl sodium sulfate, Cholesteryl sodium sulfate] | 7.6 |
| CC(C)=CC[C@H](OC(=O)C=C(C)C)C1=CC(=O)c2c(O)ccc(O)c2C1=O | 1.9 |

----------
- measured-on: SARS CoV-2 M^pro (Severe acute respiratory syndrome coronavirus 2, UniProt P0DTD1)
- Construct: The main protease (M^pro) is a part of the polyprotein chain, also named 3C-like protease; SUMO (cleaved yes); His; made in house; host or cells: Escherichia coli BL21(DE3)
- test-summary: biochemical
- Type: biochemical
- condition-context: 80 µM

| compound | output-unit | Inhibition%(80μM) |
| --- | --- | --- |
| CCCCCC/C=C\CCCCCCCc1cccc(O)c1C(=O)O | % | 107.06 |
| Cc1cc(=O)oc2cc(O)c(O)cc12 | % | 77.57 |
| O=C(O)c1ccc2c(c1)C(=O)c1ccccc1C2=O | % | 84.57 |
| C[n+]1cc2c3c(ccc2c2ccc4cc5c(cc4c21)OCO5)OCO3 [Sanguinarine chloride] | % | 108.15 |
| O=C(O)[C@H]1O[C@@H](Oc2cc3oc(-c4ccccc4)cc(=O)c3c(O)c2O)[C@H](O)[C@@H](O)[C@@H]1O | % | 72.02 |
| C/C=C1/[C@H](O[C@@H]2O[C@H](CO)[C@@H](O)[C@H](O)[C@H]2O)OC=C(C(=O)OC)[C@H]1CC(=O)OCCc1ccc(O)c(O)c1 | % | 97.72 |

----------
- measured-on: SARS CoV-2 M^pro (Severe acute respiratory syndrome coronavirus 2, UniProt P0DTD1)
- Construct: The main protease (M^pro) is a part of the polyprotein chain, also named 3C-like protease; SUMO (cleaved yes); His; made in house; host or cells: Escherichia coli BL21(DE3)
- test-summary: nanoDSF thermal shift assay (TSA)
- Format: binding
- condition-context: compound 200 μM, versus M^pro+DMSO
Counter-ions that a name gives are not always drawn.
Let's look at some compounds and their measured △T.
readout: △T (°C)

| compound | output-unit | endpoint-value |
| --- | --- | --- |
| Cc1c(=O)c(=O)c2c3c[nH]c4c(C)c(=O)c(=O)c(c5c[nH]c1c52)c43 | °C | -0.5 |
| O=c1cc(-c2ccccc2)oc2cc(O)c(O)c(O)c12 [baicalein, Baicalein, reference compound] | °C | 2.1 |
| CC(C)=CC[C@H](OC(=O)C=C(C)C)C1=CC(=O)c2c(O)ccc(O)c2C1=O | °C | 3.4 |
| CC(C)CCCC(C)C1CCC2C3CC=C4CC(OS(=O)(=O)O)CCC4(C)C3CCC12C (centres unmarked) [cholesteryl sodium sulfate, Cholesteryl sodium sulfate] | °C | -6.0 |
| COc1cc(O)c2c(c1)oc(=O)c1c3cc(O)c(O)cc3oc21 | °C | 1.2 |

----------
Let's look at some compounds and their measured inhibition at 80 µM.
- measured-on: SARS CoV-2 M^pro (Severe acute respiratory syndrome coronavirus 2, UniProt P0DTD1)
- Construct: The main protease (M^pro) is a part of the polyprotein chain, also named 3C-like protease; SUMO (cleaved yes); His; made in house; host or cells: Escherichia coli BL21(DE3)
- test-summary: biochemical
- Format: biochemical
- condition-context: read-out: Inhibition%(80μM)
readout: inhibition at 80 µM (%)

| compound | endpoint-value |
| --- | --- |
| CCCCCCCC/C=C/CCCCCCCC(=O)O | 74.9 |
| O=C1O[C@H]2[C@@H]3OC(=O)c4cc(O)c(O)c(O)c4-c4c(cc(O)c(O)c4O)C(=O)OC[C@H]2O[C@@H](OC(=O)c2cc(O)c(O)c(O)c2)[C@@H]3OC(=O)c2cc(O)c(O)c3c2[C@@H]2C1=CC(=O)[C@](O)(O3)C2(O)O | 71.6 |
| O=C(/C=C/c1ccc(O)c(O)c1)OC[C@H]1O[C@@H](OCCc2ccc(O)c(O)c2)[C@H](O)[C@@H](O[C@@H]2O[C@H](CO)[C@@H](O)[C@H](O)[C@H]2O)[C@@H]1O [Plantainoside D] | 101 |

----------
- measured-on: SARS CoV-2 M^pro (Severe acute respiratory syndrome coronavirus 2, UniProt P0DTD1)
- Construct: The main protease (M^pro) is a part of the polyprotein chain, also named 3C-like protease; SUMO (cleaved yes); His; made in house; host or cells: Escherichia coli BL21(DE3)
- test-summary: biochemical
- Assay type: biochemical
- condition-context: read-out: Inhibition%(80μM)
readout: inhibition at 80 µM (%)

| molecule | endpoint-value |
| --- | --- |
| CCCCCC/C=C\CCCCCCCC(=O)O [Palmitoleic Acid] | 103 |
| COc1ccc2c(c[n+](C)c3c4cc5c(cc4ccc23)OCO5)c1OC [Chelerythrine] | 99.4 |
| Oc1ccc2c(c1)OC[C@]1(O)Cc3cc(O)c(O)cc3[C@H]21 [Brazilin] | 101 |
| CC1=C(O)C(=O)C=C2C1=CC=C1[C@@]2(C)CC[C@@]2(C)[C@@H]3C[C@](C)(C(=O)O)CC[C@]3(C)CC[C@]12C [Celastrol] | 89.6 |

----------
Let's look at some compounds and their measured inhibition at 80 µM.
- measured-on: SARS CoV-2 M^pro (Severe acute respiratory syndrome coronavirus 2, UniProt P0DTD1)
- Construct: The main protease (M^pro) is a part of the polyprotein chain, also named 3C-like protease; SUMO (cleaved yes); His; made in house; host or cells: Escherichia coli BL21(DE3)
- test-summary: biochemical
- Format: biochemical
- condition-context: read-out: Inhibition%(80μM)

| compound | output-unit | inhibition at 80 µM |
| --- | --- | --- |
| CC(=O)/C=C/c1ccc(O)c(O)c1 [Osmundacetone] | % | 98.7 |
| CC(C)=CC[C@H](OC(=O)C=C(C)C)C1=CC(=O)c2c(O)ccc(O)c2C1=O [β,β–dimethylacrylalkannin, β,β-Dimethylacrylalkannin] | % | 100 |
| C[n+]1cc2c3c(ccc2c2ccc4cc5c(cc4c21)OCO5)OCO3 [Sanguinarine chloride] | % | 108 |
| CCCCCCCCCCC/C=C\CCCCC(=O)O [Petroselinic Acid] | % | 104 |

----------
- measured-on: SARS CoV-2 M^pro (Severe acute respiratory syndrome coronavirus 2)
- Construct: The main protease (M^pro) is a part of the polyprotein chain, also named 3C-like protease; SUMO (cleaved yes); His; made in house; host or cells: Escherichia coli BL21(DE3)
- test-summary: Surface plasmon resonance (SPR) binding to biotinylated M^pro
- condition-context: SPR multi-cycle mode, steady-state affinity; PBST, 7% DMSO
pKd: −log10 of the molar value.
readout: pKd

| given-smiles | measured-on | readout | endpoint-value |
| --- | --- | --- | --- |
| CCCCCC/C=C\CCCCCCCc1cccc(O)c1C(=O)O | SARS CoV-2 M^pro (Severe acute respiratory syndrome coronavirus 2) | pKd | 3.64 |

----------
Let's look at some compounds and their measured inhibition at 80 µM.
- measured-on: SARS CoV-2 M^pro (Severe acute respiratory syndrome coronavirus 2)
- Construct: The main protease (M^pro) is a part of the polyprotein chain, also named 3C-like protease; SUMO (cleaved yes); His; made in house; host or cells: Escherichia coli BL21(DE3)
- test-summary: biochemical
- Type: biochemical
- condition-context: read-out: Inhibition%(80μM)

| compound | inhibition at 80 µM [%] |
| --- | --- |
| O=C1O[C@H]2[C@@H]3OC(=O)c4cc(O)c(O)c(O)c4-c4c(O)c(O)c5oc(=O)c6c(c(O)c(O)c7oc(=O)c4c5c76)-c4c(cc(O)c(O)c4O)C(=O)OC[C@H]3OC(O)[C@@H]2OC(=O)c2cc(O)c(O)c(O)c2-c2c1cc(O)c(O)c2O (mixture of isomers) | 75 |
| CCCCCCCCCCCCCCC(=O)O | 92.3 |
| CCCCC/C=C\C/C=C\CCCCCCCCCC(=O)O | 105 |
| CC(=O)OCCc1ccc(O)c(O)c1 [hydroxytyrosol acetate, Hydroxytyrosol Acetate] | 103 |
| O=C(O)CCc1ccc(O)c(O)c1 [Hydrocaffeic Acid] | 88.3 |
| O=C(O)Cc1ccc(O)c(O)c1 [3,4-Dihydroxyphenylacetic Acid] | 72.4 |
| CCCCCCCCCCCC1=C(O)C(=O)C=C(O)C1=O | 103 |
| CCCCCCCC/C=C\CCCCCCCCCCCCCC(=O)O | 93.6 |
